- protocol_summary: IV pharmacokinetics
- Format: in vivo
- details: Sprague Dawley, rat, in vivo, iv, 2 mg/kg, Sprague Dawley rats
measure: AUC(0-t) (ng·h/mL)
Numeric answer only, unit ng·h/mL assumed.

molecule	observed
O=C1NCCC12CCCNC2 (stereo not drawn) [RB-1, 2,7-diazaspiro[4.5]decan-1-one]	1260
CC(C)(C)OC(=O)N1CCCC2(CCNC2=O)C1 (single isomer, unassigned)	136

Consider the molecule O=C1NCCC12CCCCN2 (stereo not drawn) and give its measured AUC(0-t).
2280

// repeat for CC(C)(C)OC(=O)N1CCCC12CCNC2=O (single isomer, unassigned) and report
1330

// repeat for CC(=O)N1CCC2(CCNC2=O)CC1 and report
6230

// repeat for CC(C)C(=O)N1CCC2(CCNC2=O)CC1 and report
10500

// repeat for CC(C)C(=O)N1CCCC12CCNC2=O (stereo not drawn) and report
7010

// repeat for CC(C)(C)OC(=O)N1CCCCC12CCNC2=O (stereo not drawn) and report
1580

// repeat for O=C1NCCC12CCNCC2 and report
1570

###

- protocol_summary: oral pharmacokinetics (plasma, brain, CSF)
- Assay type: in vivo
- details: Sprague Dawley rats, per os 10 mg/kg
In this section, each of the compounds is paired with its reported AUClast.

Recorded AUClast, per entry:
compound	observed
CC(C)(C)OC(=O)N1CCCCC12CCNC2=O (stereo not shown) [RG-606]	1933 ng·h/mL
O=C1NCCC12CCCNC2 (stereo not shown) [RC-1, 2,7-diazaspiro[4.5]decan-1-one]	3668.7 ng·h/mL
CC(C)(C)OC(=O)N1CCCCC12CCNC2=O (stereo not shown) [RG-605]	6370 ng·h/mL

Okay, now this compound:
Consider the compound CC(C)(C)OC(=O)N1CCCC2(CCNC2=O)C1 (single isomer, unassigned) and give its measured AUClast.
324.2 ng·h/mL

###

- target_of_assay: NMDAR2A (Homo sapiens, UniProt Q12879)
- Construct: expressed in transfected cells; host or cells: HEK cells (membrane extract)
- Sequence (Q12879 23-1464, species assumed, other chains not shown): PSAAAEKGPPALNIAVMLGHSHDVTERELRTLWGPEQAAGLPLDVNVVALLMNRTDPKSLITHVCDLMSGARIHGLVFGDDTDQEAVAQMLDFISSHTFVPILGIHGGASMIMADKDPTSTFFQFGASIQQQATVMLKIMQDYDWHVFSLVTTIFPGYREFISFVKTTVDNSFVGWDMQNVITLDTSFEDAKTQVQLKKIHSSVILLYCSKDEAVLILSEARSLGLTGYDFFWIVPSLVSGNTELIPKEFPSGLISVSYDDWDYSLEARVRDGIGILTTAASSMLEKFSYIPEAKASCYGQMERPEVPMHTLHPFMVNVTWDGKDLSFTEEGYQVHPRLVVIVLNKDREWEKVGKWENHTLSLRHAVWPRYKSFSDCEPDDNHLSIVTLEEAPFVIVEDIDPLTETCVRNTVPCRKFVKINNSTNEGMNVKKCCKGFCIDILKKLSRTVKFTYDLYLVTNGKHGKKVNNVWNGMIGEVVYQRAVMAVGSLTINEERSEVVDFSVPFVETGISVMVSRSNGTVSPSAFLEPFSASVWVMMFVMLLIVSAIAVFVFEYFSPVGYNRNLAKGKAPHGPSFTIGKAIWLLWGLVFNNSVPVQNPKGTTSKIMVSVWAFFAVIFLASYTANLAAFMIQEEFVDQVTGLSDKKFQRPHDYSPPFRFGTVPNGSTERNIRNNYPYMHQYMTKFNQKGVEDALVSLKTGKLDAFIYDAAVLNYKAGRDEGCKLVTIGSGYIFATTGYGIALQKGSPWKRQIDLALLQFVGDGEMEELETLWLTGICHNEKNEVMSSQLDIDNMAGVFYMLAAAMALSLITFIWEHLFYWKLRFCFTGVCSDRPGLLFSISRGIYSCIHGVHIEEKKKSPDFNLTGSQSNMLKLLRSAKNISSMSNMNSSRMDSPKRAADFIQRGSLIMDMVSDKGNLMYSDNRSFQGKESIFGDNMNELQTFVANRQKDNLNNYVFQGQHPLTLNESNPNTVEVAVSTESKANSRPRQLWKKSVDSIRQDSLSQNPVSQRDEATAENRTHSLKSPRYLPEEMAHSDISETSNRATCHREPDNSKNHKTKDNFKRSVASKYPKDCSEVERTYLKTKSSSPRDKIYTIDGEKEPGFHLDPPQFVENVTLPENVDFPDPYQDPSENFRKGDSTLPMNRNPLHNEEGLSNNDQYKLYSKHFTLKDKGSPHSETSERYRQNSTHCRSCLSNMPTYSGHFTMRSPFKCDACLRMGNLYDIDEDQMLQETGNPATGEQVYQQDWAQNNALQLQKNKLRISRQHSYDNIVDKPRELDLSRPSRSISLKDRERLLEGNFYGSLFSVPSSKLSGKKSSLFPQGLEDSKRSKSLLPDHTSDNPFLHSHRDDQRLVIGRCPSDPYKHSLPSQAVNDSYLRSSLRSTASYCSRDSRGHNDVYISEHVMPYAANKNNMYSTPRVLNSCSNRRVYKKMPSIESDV
- protocol_summary: [3H]MK-801 binding in NMDAR2A expressing HEK cell membranes
- Format: biochemical
- details: 50 μM glutamate, read-out: B: log EC50 (converted)
In this section, each of the molecules is paired with its reported EC50.

Recorded EC50, per entry:
molecule	target_of_assay	EC50
O=C1NCCC12CCCCN2 (stereo not drawn) [RG-601]	NMDAR2A (Homo sapiens, UniProt Q12879)	< 1 nM
CC(=O)N1CCCC12CCNC2=O (stereo not drawn)	NMDAR2A (Homo sapiens, UniProt Q12879)	< 1 nM

Okay, now this molecule:
Consider the molecule O=C1NCCC12CCCNC2 (stereo not drawn) [RC-1, 2,7-diazaspiro[4.5]decan-1-one] and give its measured EC50.
< 1 nM

###

- protocol_summary: IV pharmacokinetics
- Format: in vivo
- details: Sprague Dawley, rat, in vivo, iv, 2 mg/kg, Sprague Dawley rats
measure: half-life
Respond with a number, then the unit of measure.

Recorded half-life, per entry:
compound	observed
CC(C)(C)OC(=O)N1CCCC2(CCNC2=O)C1 (single isomer, unassigned) [RE-1]	0.27 h
CC(C)C(=O)N1CCC2(CCNC2=O)CC1 [RG-623]	3.98 h
CC(C)(C)OC(=O)N1CCCCC12CCNC2=O (centres unmarked) [RG-605]	0.3 h

Consider the compound O=C1NCCC12CCCCN2 (centres unmarked) [RG-601] and give its measured half-life.
1.16 h

// repeat for CC(C)(C)OC(=O)N1CCCC12CCNC2=O (single isomer, unassigned) [RM-1] and report
0.49 h

// repeat for O=C1NCCC12CCNCC2 [RG-603] and report
0.99 h

// repeat for CC(C)C(=O)N1CCCC12CCNC2=O (centres unmarked) [RZ-405] and report
4.05 h

// repeat for CC(=O)N1CCC2(CCNC2=O)CC1 [RG-621] and report
1.71 h
